- test_name: qHTS Assay for Spectroscopic Profiling in A350 Spectral Region
- experimental_parameters: Compound autofluorescence, 340/450 nm, Alexa 350 dye-equivalents
Among all 59,000 compounds or so, about 6,500 (11%) were called active. About 15% were inconclusive and are not listed. Cut-off read from the data, not from the text of the source: active = max dye-equivalent concentration above about 10 nM; inconclusive = mostly about 1.1 nM to 9.6 nM; inactive = weaker than that. The entries come from a sample that favours actives as a whole.
Tick one outcome: active, inactive

Take a look at these entries with their results.
{"columns": ["compound", "assigned_class"],
 "data": [
  ["C=CCNc1nnc(SCC(=O)N2CCCCC2)c2ccccc12", "active"],
  ["O=c1c2[nH]c3ccc(Cl)cc3c2ncn1Cc1ccccn1", "inactive"],
  ["CC1CCN(Cc2nc3c(c(=O)n(C)c(=O)n3C)n2CCc2ccccc2)CC1", "inactive"],
  ["Cc1ccc(C(=O)O)cc1S(=O)(=O)NCC1CCCO1 (centres undefined)", "inactive"]
]}

Please let me know the test result on file for Cc1ccc2c(c1)c1ncnc(N3CCc4ccccc4C3)c1n2C . active

In this assay, the call recorded for CCOc1ccccc1-n1c(SCC(=O)N2CCCC2)nnc1-c1ccoc1C was what? inactive

Recorded test call requested for Cc1nc(NCCN)c(C#N)c2c1COC(C)(C)C2 active

I'd appreciate the recorded outcome for Cc1nc2cnc(N3CCNCC3)nc2n(CCc2ccccc2)c1=O from this test. active

Test call for this compound, please: CC(C)c1ccc(-c2nn[nH]n2)cc1 inactive

Tell me the assay call for O=C(NC12CC3CC(CC(C3)C1)C2)N1CCCC(CO)C1 (centres undefined) please. inactive

Which outcome was assigned to NCCNCC1CCNCC1 in this test? inactive

Hello, I am checking results. What call was entered for COc1ccc(C(=O)CSc2nnc(COc3ccccc3)n2Cc2ccco2)cc1 ? inactive

Give the logged outcome of this assay for the following compound: O=C(COc1cccc(-n2cnnn2)c1)NCCC1=CCCCC1 inactive
